Consider the following compounds; for each one, report its Mean blood pressure.
# Tested on: Canis familiaris
# PROTOCOL DESCRIPTION: Effect on lower arterial blood pressure in conscious dogs dosed at 5 mg/kg, observed at 4-5 h
# Assay type: functional, Canis lupus familiaris
Answers are plain numbers, in mmHg.

- COMPOUND: "CCCCCC(O)CCN1C(=O)CSC1CCCCCCC(=O)O (centres undefined)"
  UNITS: "mmHg"
  Mean blood pressure: 132
- COMPOUND: "O=C(O)CCCCCCC1SCC(=O)N1CCC1(O)CCCCC1 (centres undefined)"
  UNITS: "mmHg"
  Mean blood pressure: 104
- COMPOUND: "CCCCCC(O)CCN1C(=O)CSC1CCCc1ccc(C(=O)O)cc1 (centres undefined)"
  UNITS: "mmHg"
  Mean blood pressure: 116

Now let's try a different one.
Annotate the compound O=C(O)c1ccc(CCCC2SCC(=O)N2CCC2(O)CCCCC2)cc1 (centres undefined) with its measured Mean blood pressure.
98

====

Consider the following compounds; for each one, report its Mean LAF.
# Test system: Canis familiaris
# PROTOCOL DESCRIPTION: Effect on lower aortic blood flow in conscious dogs dosed at 5 mg/kg, observed at 0-1 h
# Assay type: functional, Canis lupus familiaris, Aorta
One number for each entry, in mL/min.

Solved entries (count: 3):
- COMPOUND: "CCCCCC(O)CCN1C(=O)CSC1CCCc1ccc(C(=O)O)cc1 (centres undefined)"
  Mean LAF, mL/min: 546
- COMPOUND: "O=C(O)c1ccc(CCCC2SCC(=O)N2CCC2(O)CCCCC2)cc1 (centres undefined)"
  Mean LAF, mL/min: 486
- COMPOUND: "CCCCCC(O)CCN1C(=O)CSC1CCCCCCC(=O)O (centres undefined)"
  Mean LAF, mL/min: 420

Annotate the compound O=C(O)CCCCCCC1SCC(=O)N1CCC1(O)CCCCC1 (centres undefined) with its measured Mean LAF.
772

====

# Tested on: Canis familiaris
# PROTOCOL DESCRIPTION: Effect on heart rate in conscious dogs dosed at 5 mg/kg, observed at 0-1 h
# Format: functional, Canis lupus familiaris
EXPERIMENTAL READOUT: Mean HR

Solved entries (count: 3):
- MOLECULE: "CCCCCC(O)CCN1C(=O)CSC1CCCc1ccc(C(=O)O)cc1 (centres undefined)"
  Mean HR: "103 beats min-1"
- MOLECULE: "O=C(O)c1ccc(CCCC2SCC(=O)N2CCC2(O)CCCCC2)cc1 (centres undefined)"
  Mean HR: "122 beats min-1"
- MOLECULE: "O=C(O)CCCCCCC1SCC(=O)N1CCC1(O)CCCCC1 (centres undefined)"
  Mean HR: "180 beats min-1"

Now let's try a different one.
Annotate the molecule CCCCCC(O)CCN1C(=O)CSC1CCCCCCC(=O)O (centres undefined) with its measured Mean HR.
126 beats min-1

====

# System: Canis familiaris
# PROTOCOL DESCRIPTION: Effect on heart rate in conscious dogs dosed at 5 mg/kg, observed at 4-5 h
# Format: functional, Canis lupus familiaris
EXPERIMENTAL READOUT: Mean HR
Record the result as a number with its unit.

- COMPOUND: "O=C(O)c1ccc(CCCC2SCC(=O)N2CCC2(O)CCCCC2)cc1 (centres undefined)"
  Mean HR: "136 beats min-1"

Dear reader, for each entry below, please note its Mean HR.
1. O=C(O)CCCCCCC1SCC(=O)N1CCC1(O)CCCCC1 (centres undefined)
2. CCCCCC(O)CCN1C(=O)CSC1CCCCCCC(=O)O (centres undefined)
3. CCCCCC(O)CCN1C(=O)CSC1CCCc1ccc(C(=O)O)cc1 (centres undefined)

["88 beats min-1", "76 beats min-1", "84 beats min-1"]
